# credit: PubChem BioAssay (NCI)

Tested on: NCI-H522 lung
Test: NCI-60 one-dose screen, 48 h (100 = growth as untreated, 0 = no growth, -100 = all killed)
Conditions: 10 µM unless noted
Method: Growth inhibition of the NCI-H522 human Non-Small Cell Lung tumor cell line is measured as a screen for anti-cancer activity. Cells are grown in 96 well plates and exposed to the test compound for 48 hours. Compounds are tested at a single concentration, which is 10^-5 M for most compounds. The reported endpoint is percent growth (GI% or GIPRCNT), where numbers from 0 - 100% represent growth inhibition, and numbers from -100% - 0 represent cell death. […]
About 83,000 compounds went through this panel and 20% of them were active in at least one assay; those are over-represented in the sample as a whole.
Reported growth values for the following molecules.

Molecule | Measured On | Measurement Units | growth
CC(=O)C(N)Cc1ccccc1 (centres undefined) | NCI-H522 lung | % | 91.7
C[C@H](O)CCC(=O)c1ccoc1 | NCI-H522 lung | % | 99.5
O=C(O)C(F)F | NCI-H522 lung | % | 101
CC[C@H](CC[C@@H](C)[C@H]1CC[C@H]2[C@@H]3CC[C@H]4C[C@]5(CC[C@]4(C)[C@H]3CC[C@]12C)OO[C@](C)(C(F)(F)F)O5)C(C)C | NCI-H522 lung | % | 92.8
CCOC(=O)c1ccccc1C(=O)OCC | NCI-H522 lung | % | 61.1
Cc1ccc(NC2=N[C@]34CC(=O)CC[C@]3(C)[C@H]3CC[C@]5(C)C(=O)CC[C@H]5[C@@H]3C[C@@H]4S2)c(C)c1 | NCI-H522 lung | % | 24.6
C[C@]12CCc3sc(Nc4ccc(OC(F)(F)F)cc4)nc3C1=CC[C@@H]1[C@@H]2CC[C@]2(C)C(=O)CC[C@@H]12 | NCI-H522 lung | % | 89.1
CC[C@H](C)[C@H](NC(=O)CN(C)C)C(=O)N(C)[C@H](C[C@@H](OC(C)=O)c1nc(C(=O)NC23CC(C(=O)OC)(C2)C3)cs1)C(C)C | NCI-H522 lung | % | 12
C[C@]12C[C@H](c3ccoc3)OC(=O)[C@H]1CC[C@@]1(C)[C@@H]2[C@H]2C=C[C@]1(O)C(=O)O2 | NCI-H522 lung | % | 68.1
